The reported numbers originate from patent US20260034123A1.

Hi there, I'd appreciate the recorded IC50 for every entry that follows.
Biological target: CDK2/Cyclin E1 (Homo sapiens)
Assay: ADP-Glo Luminescent Kinase Assay (CDK2/E1-37C)
Assay type: biochemical
Conditions: 0.18 nM CDK2/Cyclin E1, 100 μM ATP, Histone H1, 37° C.; read-out: ADPGLO (CDK2/E1-37C): IC50
Experimental: Inhibition of CDK2/Cyclin E1 activity by the presence of small molecules was evaluated using ADP-Glo Luminescent Kinase Assay (Promega). […] Luminescence was recorded with an Envision plate reader (PerkinElmer). Dose titrations of inhibitors in 100% DMSO were combined with 0.36 nM CDK2/Cyclin E1 in reaction buffer. […] This mixture was incubated at room temperature for 60 minutes before Kinase Detection Solution is added to generate luminescence. […]

CC(C)(C(=O)N1CC2(CN(C(=O)c3cnn(Cc4ccc(F)cc4)c3)CC2COCc2cc(F)cc(C3CCC(F)(F)CC3)c2C(=O)O)C1)C(F)(F)F (stereo not shown) = ≤ 0.5 µM
CC1(C)C[C@@H]1C(=O)N1CC2(CN(C(=O)c3cncs3)C[C@H]2COCc2cccc(C3CCOCC3)n2)C1 = 5 to 10 µM
CC(C)(Oc1c(COC[C@@H]2CN(C(=O)c3cnn(Cc4ccc(F)cc4)c3)CC23CN(C(=O)C2(C(F)(F)F)CC2)C3)cccc1C1CCC(C(F)(F)F)CC1)C(=O)O (stereo partly shown) = 0.5 to 5 µM

Now look at this one.
Lookup: IC50 / CDK2/Cyclin E1 (Homo sapiens) / O=C(c1cnn(Cc2ccc(F)cc2)c1)N1C[C@@H](COCc2cccc(C3CCC(F)(F)CC3)c2-c2nn[nH]n2)C2(C1)CN(C(=O)C1(C(F)(F)F)CC1)C2
≤ 0.5 µM

* * *

Hi there, I'd appreciate the recorded pIC50 for every entry that follows.
Target: CDK2/Cyclin E1 (Homo sapiens)
Assay: Caliper LabChip EZ Reader mobility shift assay
Format: biochemical
Conditions: 2.5 nM CDK2/Cyclin E1(14-475), 100 μM ATP, 30 min preincubation; read-out: Caliper Assay (CDK2/CCNE1): IC50
pIC50: −log10 of the molar value.

CC1(C)C[C@@H]1C(=O)N1CC2(CN(C(=O)c3cncs3)C[C@H]2COc2cncc3c(C4CCOCC4)cccc23)C1 [Compound I-23] = 5.00 to 6.00
CC1(C)C[C@@H]1C(=O)N1CC2(CN(C(=O)c3cncs3)C[C@H]2COc2nccc3c(C4CCOCC4)cccc23)C1 [Compound I-25] = 6.00 to 7.00
O=C(c1cncs1)N1C[C@@H](COCc2cccc(-c3ccc(C(F)(F)F)cc3)n2)C2(CN(CC3CCCO3)C2)C1 (stereo partly shown) [Compound I-11] = < 5.00

Need pIC50 for each of these molecules.
1. O=C(O)C(Cc1cccc(-c2ccc(C(F)(F)F)cc2)n1)CC1CN(C(=O)c2cnn(Cc3ccc(C(F)(F)F)cc3)c2)CC12CN(C(=O)C1(C(F)(F)F)CC1)C2 (stereo not shown) [Compound I-50]
2. CC1(C)C[C@@H]1C(=O)N1CC2(CN(C(=O)c3cncs3)C[C@H]2COC(COC2CCC(F)(F)CC2)c2cccc(C3CCOCC3)n2)C1 (stereo partly shown) [Compound I-13]
3. CC1(C)C[C@@H]1C(=O)N1CC2(CN(C(=O)c3cncs3)C[C@H]2COCc2cccc(-c3ccc(C(F)(F)F)cc3F)n2)C1 [Compound I-33]
4. CC1(C)C[C@@H]1C(=O)N1CC2(CN(C(=O)c3cncs3)C[C@H]2COCc2cccc(C(F)(F)F)c2)C1 [Compound I-44]

< 5.00
6.00 to 7.00
7.00 to 8.00
5.00 to 6.00
